# Tested on: A549/ATCC NSCLC
# test-description: NCI-60 one-dose screen, 48 h (100 = growth as untreated, 0 = no growth, -100 = all killed)
# protocol-conditions: 10 µM unless noted
# Protocol: Growth inhibition of the A549/ATCC human Non-Small Cell Lung tumor cell line is measured as a screen for anti-cancer activity. Cells are grown in 96 well plates and exposed to the test compound for 48 hours. Compounds are tested at a single concentration, which is 10^-5 M for most compounds. The reported endpoint is percent growth (GI% or GIPRCNT), where numbers from 0 - 100% represent growth inhibition, and numbers from -100% - 0 represent cell death. […]
This is part of a sample that, as a whole, favours compounds with a hit. Of some 83,000 tested, about 20% had one in any assay.
measure: growth (%)
Please state the figure in %; there is no need to write the unit.

# compound COc1cnc2c(c1)C(=O)c1c-2n(CCCCl)c(=O)c2ccncc12 ; its growth = 69.3

# compound O=C(Nc1ncc(Cc2ccccc2)s1)c1ccc2c(c1)OCCCO2 ; its growth = 33.5

# compound COc1ccc(/C(C)=C(/c2ccc(OCCCN(C)C)cc2)c2ccc(OC(=O)c3ccccc3)cc2)cc1 ; its growth = 69.4

# compound O=C1/C(=C\c2cccc3nccnc23)SC(=S)N1CCc1ccc(O)cc1 ; its growth = 100

---

# Test system: NCI-H226 lung
# test-description: NCI-60 one-dose screen, 48 h
# protocol-conditions: 10 µM unless noted
Compounds without any hit were thinned out: in the full panel of roughly 83,000, 20% have a hit. The source made the active and inactive calls. The calls were made as follows: active = growth percent below 10; inactive = the rest.
Write down one outcome, taken from class 1 (active), class 0 (inactive)

molecule=O=C(N/N=C\c1cccc([N+](=O)[O-])c1)N/N=C/c1cccc([N+](=O)[O-])c1 discrete_label="class 0"

**Q:** Which outcome was assigned to O=C(CI)NC(=O)NC(=O)NCc1ccccc1 in this test?
**A:** class 1

**Q:** Which outcome was assigned to C=C(C)[C@@H]1CC[C@]2(C(=O)N3CCN(C)CC3)CC[C@]3(C)[C@H](CC[C@@H]4[C@@]5(C)CC[C@H](OC(=O)c6ccccc6C(=O)O)C(C)(C)[C@@H]5CC[C@]43C)[C@@H]12 in this test?
**A:** class 0

**Q:** Which outcome was assigned to Cc1nc2ccccc2c(/C=C/c2ccccc2)c1C(=O)/C=C/c1ccccc1 in this test?
**A:** class 0

**Q:** Which outcome was assigned to COc1ccc(C2=CN3CC=CC3CC2=O)cc1 (stereo not given) in this test?
**A:** class 0

**Q:** Which outcome was assigned to CCN1C(=O)N(CC)C2C1NC(=S)N2/N=C/c1ccc(OC)cc1 (stereo not given) in this test?
**A:** class 0

**Q:** Which outcome was assigned to CCN(CC)c1ccc(CNc2cc(C)nc3ccccc23)cc1 in this test?
**A:** class 0

**Q:** Which outcome was assigned to COc1ccc(-c2nc(-c3cn(C)c4ncccc34)cs2)cc1 in this test?
**A:** class 1

**Q:** Which outcome was assigned to OCCNCCNC(Cc1ccc(Cl)cc1)c1ccccc1 (stereo not given) in this test?
**A:** class 0

**Q:** Which outcome was assigned to COC(=O)c1c2c(c(C)[n+]([O-])c1C)C(=O)C(NCc1cccc(Cl)c1)=CC2=O in this test?
**A:** class 0

**Q:** Which outcome was assigned to O=c1cc(-c2ccccc2)[nH]c2ncc(-c3ccc(F)cc3)n12 in this test?
**A:** class 0

**Q:** Which outcome was assigned to CCCn1nc(C(=O)N(C)Cc2ccccc2)c2c1CCC(N1CCc3ccccc31)C2 (stereo not given) in this test?
**A:** class 0

**Q:** Which outcome was assigned to CC1(C)N=C(N)N=C(N)N1c1cccc(CCc2ccccc2)c1 in this test?
**A:** class 0

**Q:** Which outcome was assigned to COCCn1cc(-c2csc(-c3c[nH]c4ccc(Br)cc34)n2)c2cccnc21 in this test?
**A:** class 0

**Q:** Which outcome was assigned to CCOC(=O)c1c(C)nc2ccccc2c1/C=C/c1cccs1 in this test?
**A:** class 0

---

# Test system: UACC-257 melanoma
# test-description: NCI-60 one-dose screen, 48 h (100 = growth as untreated, 0 = no growth, -100 = all killed)
# protocol-conditions: 10 µM unless noted
This is part of a sample that, as a whole, favours compounds with a hit. Of some 83,000 tested, about 20% had one in any assay.
growth strictly less than 90% = 1. Otherwise -1.

Example entries and their recorded answers appear below.
smiles_representation=CC1(C)CC[C@]2(C(=O)N[C@H](CO)Cc3ccccc3)CC[C@]3(C)C(=CC[C@@H]4[C@@]5(C)CCCNC(C)(C)[C@@H]5CC[C@]43C)[C@@H]2C1 discrete_label=-1
smiles_representation=COc1ccc(-c2nc3c(N)c(CO)cnc3s2)cc1 discrete_label=-1
smiles_representation=COc1ccc(/C=C(/c2ccccc2)[N+](=O)[O-])c(OC)c1 discrete_label=1
smiles_representation=Cn1cc(-c2ccc(-c3cn(C)c4ccc(Cl)cc34)[nH]2)c2cc(Cl)ccc21 discrete_label=1
smiles_representation=COc1cccc(NCc2nnc(Nc3ccc(Cl)cc3)c3ccccc23)c1 discrete_label=1
smiles_representation=COc1ccc(CNc2c3ccccc3nc3ccccc23)c(OC)c1 discrete_label=1
smiles_representation=CCN(CC)CCCN1C(=O)c2c(c(C)c3c(oc4ccc(OC)cc43)c2C)C1=O discrete_label=-1
smiles_representation=COc1ccc2c(c1)c(/C(O)=C1\COC(=O)C1=O)cn2Cc1ccc(F)cc1 discrete_label=-1
smiles_representation=CCOC(=O)c1c(C)nc2ccccc2c1/C=C/c1ccccc1 discrete_label=1
smiles_representation=C=CC(=O)Nc1ccc(Nc2nccc(-c3ccc(N4CCCC4)c(C#N)c3)n2)cc1 discrete_label=1

**Q:** Given the entry CS(=O)(=O)Nc1cc(-c2ccc3ncc(C#N)c(Nc4ccc(F)c(Cl)c4)c3c2)cnc1Cl , would its reported growth be below 90%?
**A:** 1

**Q:** Given the entry CSc1nc(C)c([N+](=O)[O-])c(N)n1 , would its reported growth be below 90%?
**A:** 1

**Q:** Given the entry CN(CCCNC(=O)Cc1ccc2ccc3cccc4ccc1c2c34)CCCNc1cc(-c2ccc3ccccc3c2)nc2ccccc12 , would its reported growth be below 90%?
**A:** 1

**Q:** Given the entry COc1ccc(Oc2nc(Nc3ccc(N4CCOCC4)cc3)ncc2NC(=O)Nc2cc(OC)cc(OC)c2)cc1 , would its reported growth be below 90%?
**A:** 1

---

# System: A549/ATCC NSCLC
# test-description: NCI-60 one-dose screen, 48 h (100 = growth as untreated, 0 = no growth, -100 = all killed)
# protocol-conditions: 10 µM unless noted
The panel holds about 83,000 compounds, 20% with a hit somewhere; the sample as a whole holds those more often.
measure: growth (%)
Please state the figure in %; there is no need to write the unit.

Worked cases, answers included:
compound=Cc1ccc(-c2nc(N3CCNCC3)c3oc(-c4ccc(C)cc4)nc3n2)cc1 measure=growth value_unit=% recorded_result=-83.3
compound="CNC1=C([N+](=O)[O-])C(c2ccc(OC)cc2)C(C#N)=C(c2cccs2)O1 (stereo not given)" measure=growth value_unit=% recorded_result=102
compound="N#CC1=C(N)Oc2ccc3ccccc3c2C1c1ccc([N+](=O)[O-])cc1 (stereo not given)" measure=growth value_unit=% recorded_result=93.7
compound="CN(C)CCCC1(c2ccc(F)cc2)OCc2cc(-c3cc4ccccc4s3)ccc21 (stereo not given)" measure=growth value_unit=% recorded_result=-67.1
compound=CCSc1oc(C)nc1[P+](c1ccccc1)(c1ccccc1)c1ccccc1 measure=growth value_unit=% recorded_result=23.2

A549/ATCC NSCLC growth of C=CC(=O)Nc1ccc(Nc2nccc(-c3ccc(N4CCCC4)c(C#N)c3)n2)cc1 is 14.7

A549/ATCC NSCLC growth of COc1ccc(/C=C/C(c2cc(OC)c(OC)c(OC)c2)n2ccnc2)cc1O (stereo not given) is 29.1

A549/ATCC NSCLC growth of COc1cc(-c2nc3c(ncc4ccc(=O)n(-c5ccccc5)c43)s2)cc(OC)c1OC is 86.3

A549/ATCC NSCLC growth of CC(=O)/C(=C/c1ccc([N+](=O)[O-])cc1)C(=O)c1ccccc1 is 83.6

A549/ATCC NSCLC growth of COc1ccc(N2CCN(C(=O)c3sc4nc(C)c(Br)c(C)c4c3N)CC2)cc1 is 91.1

A549/ATCC NSCLC growth of Oc1c(CN2CCCC2)cc(CSCc2ccccc2)c2cccnc12 is 9.29

A549/ATCC NSCLC growth of COc1cc(/C=C/C(=O)c2ccc(-n3cc(CN4CCN(c5cc6c(cc5F)c(=O)c(C(=O)O)cn6C5CC5)CC4)nn3)cc2)ccc1O is 71.6

A549/ATCC NSCLC growth of CC1C(/C=N/NC(N)=S)C(C#N)(C#N)C1(C#N)C#N (stereo not given) is 100

A549/ATCC NSCLC growth of CCC1S/C(=N\N=C(\C)c2cc3cc(Cl)ccc3o2)N(c2ccccc2)C1=O (stereo not given) is 132

A549/ATCC NSCLC growth of COc1ccc2c(c1)/C(=N/c1n[nH]c(=S)s1)C(=O)N2 is 83.7
